test system: SK-MEL-28 melanoma; assay: NCI-60 one-dose screen, 48 h; conditions: 10 µM
This is part of a sample that, as a whole, favours compounds with a hit. Of some 83,000 tested, about 20% had one in any assay. Activity calls are given as the source filed them. Rule for the calls: active = growth percent below 10; inactive = the rest.
Pick one and only one: active, inactive

Some entries whose results are on file:
molecule	target entity	assigned label
CCC(CC)n1c(C)cc(=O)n1C(CC)CC	SK-MEL-28 melanoma	inactive
COc1cc(-c2nn(-c3cccc(NC(=O)CN4CCOCC4)c3)cc2-c2cccnc2)ccc1Cl	SK-MEL-28 melanoma	inactive

Challenge: Fill in: this test's call for `O=C(CCCSc1nc(-c2ccc(Cl)cc2)cc(-c2ccc(Cl)cc2)n1)NO` is ___
Response given: inactive

Challenge: So what was the verdict on COc1cc(C2C(C#N)=C(N)Oc3cc(O)ccc32)cc(OC)c1OC (stereo unspecified) in this test?
Response given: inactive

----------
Entries and their measured growth follow.
System: EKVX NSCLC
Assay: NCI-60 one-dose screen, 48 h (100 = growth as untreated, 0 = no growth, -100 = all killed)
Details: 10 µM
Protocol: Growth inhibition of the EKVX human Non-Small Cell Lung tumor cell line is measured as a screen for anti-cancer activity. Cells are grown in 96 well plates and exposed to the test compound for 48 hours. Compounds are tested at a single concentration, which is 10^-5 M for most compounds. The reported endpoint is percent growth (GI% or GIPRCNT), where numbers from 0 - 100% represent growth inhibition, and numbers from -100% - 0 represent cell death. […]
The panel holds about 83,000 compounds, 20% with a hit somewhere; the sample as a whole holds those more often.
Give the value in % but do not write % after it.

item smiles	target entity	unit abbrev	numeric result
COc1cc(-c2nn(-c3cccc(NC(=O)NCCNC(=O)c4cccc(C(F)(F)F)c4)c3)cc2-c2ccncc2)ccc1Cl	EKVX NSCLC	%	60.1
COc1ccc(-c2nn(-c3cccc(Cl)c3)cc2-c2nc(N)[nH]c(=O)c2C#N)cc1	EKVX NSCLC	%	31.8
N#Cc1c(-c2ccc(Cl)cc2)n(O)c2ccccc12	EKVX NSCLC	%	30.2

Challenge: Which value of growth has been reported for `COc1cc(-c2nc3ccccc3o2)cc(CN2CCCCC2)c1O` in the records?
Response given: 66.5

----------
Listed below: growth values for each entry.
system: PC-3 prostate; test: NCI-60 one-dose screen, 48 h (100 = growth as untreated, 0 = no growth, -100 = all killed); settings: 10 µM
The panel holds about 83,000 compounds, 20% with a hit somewhere; the sample as a whole holds those more often.
Just the number please, in %, no unit attached.

compound	target entity	measured metric	numeric result
COc1cc(-c2nn(-c3cccc(NC(=O)CN4CCOCC4)c3)cc2-c2cccnc2)ccc1Cl	PC-3 prostate	growth	58
COc1ccccc1/C=N\N/C(N)=N\N=C\c1ccccc1OC	PC-3 prostate	growth	29.3

Challenge: What growth value was documented for this compound, `CN(C)c1ccc(/C=N/NC(=O)c2cccc3ccccc23)c(Cl)c1` ?
Response given: 20.3

Challenge: Query: growth; subject: `CC(C)(O)CCl`
Response given: 102

Challenge: Would you kindly share the measured growth for `COc1cc(-c2nn(-c3cccc(NC(=O)CCNc4ccc(N5CCOCC5)cc4)c3)cc2-c2ccncc2)ccc1Cl` ?
Response given: 8.06

Challenge: // query growth value for entry `CCOC(=O)c1cc(C(=O)c2ccc(OC)c(OC)c2)n2c1ccc1ccc3cccnc3c12`
Response given: 22.2

Challenge: Entry under review: `c1ccc(/C(=N\Nc2ccc3ccccc3n2)c2ccccn2)cc1` . Reported growth?
Response given: 19.4

Challenge: Reported growth for `COc1cc2cc(Oc3ccc(NC(=O)Nc4ccc(Cl)c(C(F)(F)F)c4)cc3)c(C)nc2cc1OC` : what is it?
Response given: -0.614

Origin of values: PubChem BioAssay (NCI)
